Below, each of the binders is paired with its reported MFI value.
- System: T1, human guanylyl cyclase C (GCC) (human, UniProt P25092 24-1073)
- T1 construct: also called hGCC; STAR
- T1 sequence (P25092 24-1073 limits assumed): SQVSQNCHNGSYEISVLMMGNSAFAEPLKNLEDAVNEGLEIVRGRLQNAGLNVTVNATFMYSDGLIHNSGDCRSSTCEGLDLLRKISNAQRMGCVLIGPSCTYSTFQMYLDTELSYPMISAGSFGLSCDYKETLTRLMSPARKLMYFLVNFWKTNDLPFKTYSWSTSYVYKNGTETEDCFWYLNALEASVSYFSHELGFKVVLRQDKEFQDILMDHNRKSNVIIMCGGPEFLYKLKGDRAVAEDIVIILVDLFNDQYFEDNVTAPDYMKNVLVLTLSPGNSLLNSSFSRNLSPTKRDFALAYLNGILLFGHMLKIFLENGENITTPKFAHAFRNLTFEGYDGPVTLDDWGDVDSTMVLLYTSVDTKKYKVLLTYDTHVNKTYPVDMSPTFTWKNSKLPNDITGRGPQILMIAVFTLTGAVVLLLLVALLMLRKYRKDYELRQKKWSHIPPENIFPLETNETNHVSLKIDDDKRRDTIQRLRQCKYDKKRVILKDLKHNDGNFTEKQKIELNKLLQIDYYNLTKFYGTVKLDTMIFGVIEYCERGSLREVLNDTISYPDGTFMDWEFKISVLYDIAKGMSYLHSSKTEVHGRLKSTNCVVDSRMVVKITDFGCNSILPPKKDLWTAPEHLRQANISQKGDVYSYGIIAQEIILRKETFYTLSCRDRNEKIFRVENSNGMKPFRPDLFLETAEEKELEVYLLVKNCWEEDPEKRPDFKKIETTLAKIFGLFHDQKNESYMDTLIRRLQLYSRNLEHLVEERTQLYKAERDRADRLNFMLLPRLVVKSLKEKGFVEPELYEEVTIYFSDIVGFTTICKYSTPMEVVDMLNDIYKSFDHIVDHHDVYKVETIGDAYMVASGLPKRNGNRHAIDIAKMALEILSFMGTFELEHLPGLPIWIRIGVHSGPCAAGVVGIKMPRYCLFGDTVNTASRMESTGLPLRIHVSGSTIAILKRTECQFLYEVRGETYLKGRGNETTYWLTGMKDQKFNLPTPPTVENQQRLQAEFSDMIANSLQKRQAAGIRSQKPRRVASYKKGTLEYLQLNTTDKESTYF
- Assay method text: flow cytometry, 293 GCC #2 cells, 0.016 µg/ml

>  <Binder>
anti-GCC human monoclonal antibody 5F9 (antibody, V domains shown, also called mAb 5F9; MAb 5F9 (Prep A)) VH: QVQLQQWGAGLLKPSETLSLTCAVFGGSFSGYYWSWIRQPPGKGLEWIGEINHRGNTNDNPSLKSRVTISVDTSKNQFALKLSSVTAADTAVYYCARERGYTYGNFDHWGQGTLVTVSS VL: EIVMTQSPATLSVSPGERATLSCRASQSVSRNLAWYQQKPGQAPRLLIYGASTRATGIPARFSGSGSGTEFTLTIGSLQSEDFAVYYCQQYKTWPRTFGQGTNVEIK

>  <MFI>
2460

$$$$
>  <Binder>
5F9-vc-MMAF (antibody, V domains shown, mc-vc-MMAF linked to cysteines freed by partial reduction of interchain disulfides (outside this variable domain); average drug loading about four) VH: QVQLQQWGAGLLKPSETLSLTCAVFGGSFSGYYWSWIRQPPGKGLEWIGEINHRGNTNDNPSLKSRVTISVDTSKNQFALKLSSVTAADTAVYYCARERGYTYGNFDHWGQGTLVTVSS VL: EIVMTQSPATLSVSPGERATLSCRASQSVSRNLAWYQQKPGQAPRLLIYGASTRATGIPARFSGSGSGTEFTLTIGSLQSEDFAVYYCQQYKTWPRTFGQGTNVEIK

>  <MFI>
1500

$$$$
>  <Binder>
5F9-mc-MMAF (antibody, V domains shown, mc-MMAF (non-cleavable linker) linked to cysteines freed by partial reduction of interchain disulfides (outside this variable domain); average drug loading about four) VH: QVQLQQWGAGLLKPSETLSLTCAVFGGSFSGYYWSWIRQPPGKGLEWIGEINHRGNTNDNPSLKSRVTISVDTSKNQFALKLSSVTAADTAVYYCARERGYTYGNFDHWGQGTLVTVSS VL: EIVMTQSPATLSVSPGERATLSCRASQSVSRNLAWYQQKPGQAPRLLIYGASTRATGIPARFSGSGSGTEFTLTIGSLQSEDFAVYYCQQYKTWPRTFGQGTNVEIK

>  <MFI>
2110

$$$$
>  <Binder>
5F9 vcMMAE immunoconjugate (antibody, V domains shown, mc-vc-MMAE linked to cysteines freed by partial reduction of interchain disulfides (outside this variable domain); average drug loading about 4 (3.6 in the described preparation), also called MLN0264; ML0264) VH: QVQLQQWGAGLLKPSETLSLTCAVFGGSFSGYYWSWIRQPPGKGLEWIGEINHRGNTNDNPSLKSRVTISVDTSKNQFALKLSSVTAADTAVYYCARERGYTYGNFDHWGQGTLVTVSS VL: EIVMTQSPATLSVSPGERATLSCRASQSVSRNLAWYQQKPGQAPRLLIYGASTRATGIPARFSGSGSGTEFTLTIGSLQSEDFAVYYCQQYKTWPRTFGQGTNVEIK

>  <MFI>
1790

$$$$
